Reported selectivity ratio values for the following molecules.
# PROCEDURE SUMMARY: Selectivity index, ratio of IC50 for rat L6 cells to IC50 for Plasmodium falciparum K1
# Type: toxicity, cell-based
# CONDITIONS: L6 cells (versus Plasmodium falciparum K1), read-out: Ratio IC50
Returns: the value as a bare number; no unit string appended.

Recorded selectivity ratio, per entry:
c1ccc(C2CC3(N4CCCC4)CCNC2C(c2ccccc2)C3)cc1 (centres undefined) | 215
O=C(CN1CCCCC1)OC1CC2(N3CCCC3)CC(c3ccccc3)C1C(c1ccccc1)C2 (centres undefined) | 38.4

Next molecule, selectivity ratio to be filled in.
Exam item: Given the molecule NC1CC2(N3CCCC3)CC(c3ccccc3)C1C(c1ccccc1)C2 (centres undefined) , what is its reported selectivity ratio?
Marked response: 58.6
